Record form. Attribute: EC50. Fill in for each entry.
Target: human PPARα-receptor (Homo sapiens)
Sequence (Q07869 167-468): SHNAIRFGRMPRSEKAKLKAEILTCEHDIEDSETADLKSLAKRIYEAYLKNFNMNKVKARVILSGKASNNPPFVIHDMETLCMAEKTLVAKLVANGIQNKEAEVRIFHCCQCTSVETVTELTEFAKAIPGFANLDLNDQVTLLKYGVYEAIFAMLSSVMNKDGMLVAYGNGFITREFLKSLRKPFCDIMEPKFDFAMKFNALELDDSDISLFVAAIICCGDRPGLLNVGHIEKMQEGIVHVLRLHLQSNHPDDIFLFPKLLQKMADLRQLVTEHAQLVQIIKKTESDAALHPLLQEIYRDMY
Assay: Cellular transactivation assay (GAL4-PPARα chimera, luciferase reporter, CHO cells)
Settings: CHO cells stably expressing GAL4-PPARα chimera and luciferase reporter; stimulation time 6 h
Output spec: scalar in nM, unitless text.

stdin: Please state recorded EC50 (tested on human PPARα-receptor (Homo sapiens)) of Cc1cc(-c2ccc(C(=O)O)c(Oc3ccccc3Cl)n2)ccc1F
stdout: 157

stdin: Return EC50 measured with human PPARα-receptor (Homo sapiens) given this compound: O=C(O)c1ccc(-c2ccc(Cl)nc2)nc1Oc1ccccc1Cl
stdout: 870

stdin: Given the entry Cc1ccc(-c2ccc(C(=O)O)c(Oc3ccccc3Cl)n2)cc1F , what EC50 was observed with human PPARα-receptor (Homo sapiens)?
stdout: 33

stdin: Request body: readout EC50, system human PPARα-receptor (Homo sapiens), query O=C(O)c1ccc(-c2cccc(F)c2F)nc1Oc1ccccc1OC(F)(F)F . Return the value.
stdout: 76

stdin: Value wanted: EC50 (human PPARα-receptor (Homo sapiens)) of entry COc1cccc(-c2cc(C(F)(F)F)c(C(=O)O)c(Oc3ccccc3Cl)n2)c1F
stdout: 541

stdin: Record lookup: for human PPARα-receptor (Homo sapiens), what EC50 belongs to N#Cc1ccc(Cl)c(Oc2nc(-c3cc(F)cc(F)c3)ccc2C(=O)O)c1 ?
stdout: 69

stdin: Recorded EC50 for Cc1ccc(-c2cc(C(F)(F)F)c(C(=O)O)c(Oc3ccccc3Cl)n2)cc1F with human PPARα-receptor (Homo sapiens), please?
stdout: 14

stdin: Record lookup: for human PPARα-receptor (Homo sapiens), what EC50 belongs to Cc1ccc(-c2nc(Oc3ccccc3Cl)c(C(=O)O)cc2F)cc1F ?
stdout: 34

stdin: Lab note: need EC50 for O=C(O)c1cc(F)c(-c2ccc(C(F)(F)F)cc2)nc1Oc1ccccc1Cl on human PPARα-receptor (Homo sapiens), anyone have it?
stdout: 360
